# tested system: T1, human DLL1 his tag fusion protein (Sino Biological, Cat. No. 11635-H08H) (human, UniProt O00548 18-540)
# T1 construct: Bought protein; also called hDLL1-his; hDLL1 protein; not shown: his tag
# T1 sequence (looked up): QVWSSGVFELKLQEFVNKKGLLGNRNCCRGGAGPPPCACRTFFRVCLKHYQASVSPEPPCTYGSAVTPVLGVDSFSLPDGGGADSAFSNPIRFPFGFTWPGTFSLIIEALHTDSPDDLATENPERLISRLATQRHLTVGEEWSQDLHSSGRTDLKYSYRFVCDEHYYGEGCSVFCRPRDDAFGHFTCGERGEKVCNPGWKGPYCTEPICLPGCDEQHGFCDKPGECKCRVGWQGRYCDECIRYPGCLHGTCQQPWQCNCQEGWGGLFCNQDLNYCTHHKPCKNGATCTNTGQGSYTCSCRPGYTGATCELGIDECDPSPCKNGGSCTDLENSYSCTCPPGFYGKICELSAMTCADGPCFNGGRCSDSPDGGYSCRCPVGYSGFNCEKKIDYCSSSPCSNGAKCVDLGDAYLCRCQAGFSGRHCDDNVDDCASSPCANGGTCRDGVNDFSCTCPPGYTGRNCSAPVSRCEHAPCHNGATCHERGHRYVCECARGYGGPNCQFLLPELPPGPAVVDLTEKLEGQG
# experiment notes: ELISA, hDLL1-his coated at 1 ug/mL
reported metric: binding result

# query: binding result of entry 362H3D3-hIgG1 chimeric antibody (antibody, V domains shown) VH: EVQLQQSGPELLKPGASVKISCKASGYTFTDYTMHWVKQSHGRSLEWIGGIHPNYGGTSYNEKFKDKATLTVDKSSSTAYMEFRSLTSEDSAVYYCARWGYYGGSYWYFDVWGTGTTVTVSS VL: DIQMTQSPASLSVSVGETVTITCRASENIYSNLAWYQQKQGKSPQLLVYAATNLADGVPSRFSGSGSGTQYSLKINSLQSEDFGSYYCQHFWGTPYTFGGGTKLEIKR
binds
